Molecular target: Glycogen synthase kinase-3 alpha (Homo sapiens) (UniProt P49840)
Sequence (P49840 whole entry, looked up): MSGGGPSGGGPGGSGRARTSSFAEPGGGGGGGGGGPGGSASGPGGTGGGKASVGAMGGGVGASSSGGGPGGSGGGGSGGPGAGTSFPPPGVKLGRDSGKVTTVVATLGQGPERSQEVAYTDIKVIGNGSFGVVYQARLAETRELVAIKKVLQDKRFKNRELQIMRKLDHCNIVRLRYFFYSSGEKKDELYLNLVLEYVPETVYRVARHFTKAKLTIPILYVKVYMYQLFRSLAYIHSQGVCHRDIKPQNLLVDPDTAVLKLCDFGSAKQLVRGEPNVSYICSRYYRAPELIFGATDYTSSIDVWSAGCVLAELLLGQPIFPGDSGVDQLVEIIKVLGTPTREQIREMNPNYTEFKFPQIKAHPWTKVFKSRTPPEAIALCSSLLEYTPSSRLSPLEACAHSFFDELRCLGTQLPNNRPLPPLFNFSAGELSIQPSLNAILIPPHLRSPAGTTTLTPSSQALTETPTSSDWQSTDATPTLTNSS
Test: concentration-response blocking of human GSK3A – biochemical, luminescence, cell-free homogeneous, retest, dose response (AID 463203)
Settings: GSK-3 alpha enzyme, ADP-Glo luminescence, 60 min
The source made the active and inactive calls.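 How the source made its calls: active means more than half of replicate measurements showing over 20% loss of kinase signal relative to plate controls; inconclusive means some but at most half of replicates over 20% loss; inactive means no replicate over 20% signal loss.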
The compounds listed here are annotated with their AC50.

- compound: "CC1(C)Cc2cccc(C(=O)Nc3ccc(Cl)cc3)c2O1"
  AC50: "> 30 µM (inactive)"
- compound: "COc1c2ccccc2nc2ccccc12"
  AC50: "> 30 µM (inactive)"
- compound: "Oc1[nH]c2ccccc2c1N=Nc1ccccc1"
  AC50: "13.9 µM"
- compound: "O=C(O)c1cc(-c2ccc(/C=N/N3C(=O)C4C5C=CC(C6CC56)C4C3=O)o2)ccc1Cl (stereo not given)"
  AC50: "> 30 µM (inactive)"
- compound: "CCOC(=O)c1nnn(-c2nonc2N)c1COc1c(C=O)cccc1OC"
  AC50: "4.32 µM"
- compound: "C#CCOCCOCCOCCNc1nc(N2CCN(C(=O)CCCCCCCCCCNC(=O)[C@H](CCCCN)n3cc(C)nn3)CC2)nc(N2CCN(C(=O)CCCCCCCCCCNC(=O)[C@@H]([C@H](C)CC)n3cc(CCCCCN)nn3)CC2)n1"
  AC50: "> 30 µM (inactive)"
- compound: "Cc1ccc(CSCCNC(=O)c2ccc(C)cc2)cc1"
  AC50: "> 30 µM (inactive)"
- compound: "COc1ccc(S(=O)(=O)Nc2c(C(=O)O)[nH]c3ccc(OC)cc23)cc1"
  AC50: "30.7 µM"
- compound: "COc1ccc(-c2cc(C(=O)N3CCN(c4ccccc4OC)CC3)no2)cc1"
  AC50: "> 30 µM (inactive)"
- compound: "CC(=O)N1CCN(c2ccccc2NC(=O)c2ccc(Br)o2)CC1"
  AC50: "10.3 µM"
- compound: "Cc1c(C)n(CCCN(C)C)c2ncnc(NC3CCCCC3)c12"
  AC50: "> 30 µM (inactive)"
- compound: "CN(C)C(=O)Oc1ccc2c(c1)O/C(=C\\c1cccc([N+](=O)[O-])c1)C2=O"
  AC50: "> 30 µM (inactive)"
- compound: "CC1(C)CC(=O)C(CS(=O)(=O)c2ccccc2)=C(O)C1"
  AC50: "> 30 µM (inactive)"
- compound: "Oc1ccc2c(c1)oc1cc(O)ccc12"
  AC50: "12 µM"
- compound: "CCOC(=O)CC1COc2ccccc2N1C(=O)c1ccc(C)cc1 (stereo not given)"
  AC50: "> 30 µM (inactive)"
- compound: "Cn1c(=O)c2[nH]cnc2n(-c2ccccc2)c1=O"
  AC50: "> 30 µM (inactive)"
- compound: "O=C1/C(=C/c2ccc(O)c(O)c2)Oc2cc(O)ccc21"
  AC50: "10.5 µM"
- compound: "O=C(Nc1ccccc1N1CCN(C(=O)c2ccccc2)CC1)c1ccc(Br)o1"
  AC50: "3.51 µM"
- compound: "CC(C)(C)NC(=O)/C(=C\\c1ccccc1F)NC(=O)c1ccc([N+](=O)[O-])cc1"
  AC50: "> 30 µM (inactive)"
- compound: "CC(C)c1ccc(C2CC(=O)N3CN(Cc4ccco4)CSC3=C2C#N)cc1 (stereo not given)"
  AC50: "21 µM"

---

Biological target: Glycogen synthase kinase-3 alpha (Homo sapiens) (UniProt P49840)
Test: concentration-response blocking of human GSK3A – biochemical, luminescence, cell-free homogeneous, retest, dose response (AID 463203)
Details: GSK-3 alpha enzyme, ADP-Glo luminescence, 60 min
Activity calls are given as the source filed them.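 Rule for the calls: active = more than half of replicate measurements showing over 20% loss of kinase signal relative to plate controls; inconclusive = some but at most half of replicates over 20% loss; inactive = no replicate over 20% signal loss.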
The compounds listed here are annotated with their AC50.

- compound: "CSc1nc2sc3c(c2c(=O)[nH]1)CCC(C)C3 (stereo unspecified)"
  AC50: "> 30 µM (inactive)"
- compound: "Cn1ccnc1SCC(=O)Nc1ccc(Cl)cn1"
  AC50: "23.1 µM"
- compound: "O=c1cc(-c2ccccc2)oc2ccccc12"
  AC50: "> 30 µM (inactive)"
- compound: "COc1cccc(N(CC(=O)Nc2cccc(C(C)=O)c2)S(C)(=O)=O)c1"
  AC50: "> 30 µM (inactive)"
- compound: "COC(=O)[C@H]1[C@H](CCc2ccccc2)NC(=O)N(Cc2ccccc2)[C@@H]1C"
  AC50: "> 30 µM (inactive)"
- compound: "CC(C)NC(=O)Nc1n[nH]c(Nc2ccc(Cl)cc2)n1"
  AC50: "4.87 µM"
- compound: "O=C(COc1ccccc1F)NC1CC1"
  AC50: "> 30 µM (inactive)"
- compound: "Cc1ccnc(NC(=O)CCC(=O)N(CC(=O)NCc2ccccc2)Cc2ccco2)c1"
  AC50: "13.4 µM"
- compound: "Cc1noc(C)c1COc1cccc(C(=O)OC(C)C(=O)Nc2c(C)n(C)n(-c3ccccc3)c2=O)c1 (stereo unspecified)"
  AC50: "> 30 µM (inactive)"
- compound: "O=C(COC(=O)c1cccc(S(=O)(=O)N2CCOCC2)c1)Nc1ncc(Cl)cc1Cl"
  AC50: "> 30 µM (inactive)"
- compound: "Cc1nc2cc(-c3ccccc3)ccc2o1"
  AC50: "> 30 µM (inactive)"
- compound: "CCN1CCN(c2nc(Nc3ccccc3F)nc(N)c2[N+](=O)[O-])CC1"
  AC50: "> 30 µM (inactive)"
- compound: "CCOc1ccc(N=C2NC(=O)SC2CC(=O)OC)cc1 (stereo unspecified)"
  AC50: "> 30 µM (inactive)"
- compound: "Cn1c(=O)c2[nH]c(CNc3ccc(C(=O)O)cc3)nc2n(C)c1=O"
  AC50: "> 30 µM (inactive)"
- compound: "CCOC(=O)c1nnn(-c2nonc2N)c1-c1ccccc1Cl"
  AC50: "8.37 µM"
- compound: "Clc1ccc(N/N=C/c2ccncc2)cc1Cl"
  AC50: "> 30 µM (inactive)"
- compound: "COc1cccc(C(=O)O/N=C(\\N)c2ccccn2)c1OC"
  AC50: "> 30 µM (inactive)"
- compound: "COc1ccc2nc(NC(=O)CSc3cn[nH]n3)sc2c1"
  AC50: "9.56 µM"
- compound: "CCC(CO)Nc1ncc([N+](=O)[O-])cc1C#N (stereo unspecified)"
  AC50: "> 30 µM (inactive)"
- compound: "O=C(Nc1ccccc1)c1cc(-n2cnnc2)ccc1Cl"
  AC50: "> 30 µM (inactive)"
- compound: "COC(=O)[C@@H](NC(=O)NCc1ccc(F)cc1)C(C)C"
  AC50: "> 30 µM (inactive)"
- compound: "C=CCc1cc(/C=N/n2cnnc2)cc(OCC)c1O"
  AC50: "> 30 µM (inactive)"
- compound: "CNc1nc(Cl)c(SC)c(NC2CCCCC2)n1"
  AC50: "> 30 µM (inactive)"
- compound: "COC(=O)c1ccc(CN2C(=O)NC(CC(C)C)C2=O)cc1 (stereo unspecified)"
  AC50: "> 30 µM (inactive)"
- compound: "O=[N+]([O-])c1ccc(-c2nnc(-c3ccccc3)c(NCCCO)n2)cc1"
  AC50: "> 30 µM (inactive)"
- compound: "OCC1OC(n2cnc3c(NCCc4ccccc4)ncnc32)C(O)C1O (stereo unspecified)"
  AC50: "> 30 µM (inactive)"
- compound: "Clc1ccc(Nc2nc(NCCN3CCOCC3)nc(N3CCOCC3)n2)cc1"
  AC50: "> 30 µM (inactive)"
- compound: "c1ccc(N2CCN(c3cnc4ccccc4n3)CC2)cc1"
  AC50: "> 30 µM (inactive)"
- compound: "CCOC(=O)c1cc(C)sc1NC(=O)CCC(=O)O"
  AC50: "> 30 µM (inactive)"
- compound: "COc1ccccc1N=c1oc2cc(O)ccc2cc1C(N)=O"
  AC50: "4.68 µM"
- compound: "CN(C)Cc1c(C(=O)N/N=C/c2ccc(-c3ccccc3)cc2)nnn1-c1nonc1N"
  AC50: "> 30 µM (inactive)"
- compound: "CSc1ccc(/C=C2\\NC(=O)NC2=O)cc1"
  AC50: "27.9 µM"
- compound: "Clc1ccc(CSc2nncn2-c2ccc3c(c2)OCCO3)cc1"
  AC50: "> 30 µM (inactive)"
- compound: "Cc1ccc(N(CC(O)CN2CCCC2)S(=O)(=O)c2ccccc2)cc1 (stereo unspecified)"
  AC50: "> 30 µM (inactive)"
- compound: "Cc1cc(=O)[nH]c2cc(O)ccc12"
  AC50: "> 30 µM (inactive)"
- compound: "COc1ccc(CCNC(=O)c2nnn(-c3ccccc3OC)c2N)cc1OC"
  AC50: "14.8 µM"
- compound: "COc1cccc(/C=N/n2nnnc2N)c1OCC#N"
  AC50: "> 30 µM (inactive)"
- compound: "COc1ccc([N+](=O)[O-])cc1NC(=O)CCN1CCN(C)CC1"
  AC50: "> 30 µM (inactive)"
- compound: "Cc1ccc(CNc2ccc([N+](=O)[O-])cc2C(N)=O)cc1"
  AC50: "> 30 µM (inactive)"
- compound: "Cc1nnc(SCC(=O)N2c3ccccc3CC2C)s1 (stereo unspecified)"
  AC50: "> 30 µM (inactive)"
- compound: "Cc1cn(C2OC(CC(=O)Oc3ccccc3)C(O)C2O)c(=O)[nH]c1=O (stereo unspecified)"
  AC50: "19.1 µM"
